# Test Target: PAO in bovine plasma (Bos taurus)
# Construct: crude bovine plasma can be used as enzyme source in this assay instead of the purified enzyme; tissue Coesfelder Fleischhandelsgesellschaft, Bernd Grewe (Coesfeld, Germany); host or cells: heparinised bovine blood plasma
# Sequence (Q29437 17-762): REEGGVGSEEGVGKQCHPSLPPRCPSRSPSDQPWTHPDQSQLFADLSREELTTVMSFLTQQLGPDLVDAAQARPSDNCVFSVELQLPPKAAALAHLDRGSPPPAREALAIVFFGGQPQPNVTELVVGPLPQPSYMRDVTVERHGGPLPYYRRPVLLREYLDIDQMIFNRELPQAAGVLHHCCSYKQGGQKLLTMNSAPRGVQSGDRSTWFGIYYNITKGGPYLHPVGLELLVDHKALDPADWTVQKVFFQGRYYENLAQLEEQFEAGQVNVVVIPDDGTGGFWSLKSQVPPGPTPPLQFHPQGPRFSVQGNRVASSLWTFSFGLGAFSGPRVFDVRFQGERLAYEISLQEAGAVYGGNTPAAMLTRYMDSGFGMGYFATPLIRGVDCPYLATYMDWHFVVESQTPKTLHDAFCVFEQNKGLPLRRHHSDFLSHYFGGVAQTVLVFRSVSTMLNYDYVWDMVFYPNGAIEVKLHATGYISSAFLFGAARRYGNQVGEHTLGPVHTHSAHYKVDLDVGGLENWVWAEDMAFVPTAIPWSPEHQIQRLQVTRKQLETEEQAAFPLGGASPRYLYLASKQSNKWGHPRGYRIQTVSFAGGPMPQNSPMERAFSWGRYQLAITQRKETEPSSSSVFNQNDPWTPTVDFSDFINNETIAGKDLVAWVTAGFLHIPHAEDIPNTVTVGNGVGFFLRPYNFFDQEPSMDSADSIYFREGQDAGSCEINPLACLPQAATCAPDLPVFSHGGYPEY
# Procedure Text: Conversion of amine substrates by bovine plasma (HPLC-UV)
# Format: biochemical
# Test Settings: substrate 250 µM, 6 µL bovine plasma in final volume 100 µL; mean ± SD, n = 3
Value Type: Conversion of substrate, Bovine plasma (%)
Number in %, nothing else.

# count of solved cases: 2
Request: Given the entry NCCCCCCCn1nnc(-c2ccccc2)n1 , report its measured Conversion of substrate, Bovine plasma.
Result: 23

Request: Same question for NCCCCCn1nnc(-c2ccccc2)n1 please.
Result: 51

Then this compound:
Request: // query Conversion of substrate, Bovine plasma value for entry NCCCCCCCCn1nnc(-c2ccccc2)n1
Result: 26
